Overview of reported furin cleavage Z-score across a group of sequences:
TESTED ON: furin, P09958;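 also: purified furin at 1:10 enzyme:substrate in 50 mM HEPES pH 7.5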
Sequence (P09958 whole entry): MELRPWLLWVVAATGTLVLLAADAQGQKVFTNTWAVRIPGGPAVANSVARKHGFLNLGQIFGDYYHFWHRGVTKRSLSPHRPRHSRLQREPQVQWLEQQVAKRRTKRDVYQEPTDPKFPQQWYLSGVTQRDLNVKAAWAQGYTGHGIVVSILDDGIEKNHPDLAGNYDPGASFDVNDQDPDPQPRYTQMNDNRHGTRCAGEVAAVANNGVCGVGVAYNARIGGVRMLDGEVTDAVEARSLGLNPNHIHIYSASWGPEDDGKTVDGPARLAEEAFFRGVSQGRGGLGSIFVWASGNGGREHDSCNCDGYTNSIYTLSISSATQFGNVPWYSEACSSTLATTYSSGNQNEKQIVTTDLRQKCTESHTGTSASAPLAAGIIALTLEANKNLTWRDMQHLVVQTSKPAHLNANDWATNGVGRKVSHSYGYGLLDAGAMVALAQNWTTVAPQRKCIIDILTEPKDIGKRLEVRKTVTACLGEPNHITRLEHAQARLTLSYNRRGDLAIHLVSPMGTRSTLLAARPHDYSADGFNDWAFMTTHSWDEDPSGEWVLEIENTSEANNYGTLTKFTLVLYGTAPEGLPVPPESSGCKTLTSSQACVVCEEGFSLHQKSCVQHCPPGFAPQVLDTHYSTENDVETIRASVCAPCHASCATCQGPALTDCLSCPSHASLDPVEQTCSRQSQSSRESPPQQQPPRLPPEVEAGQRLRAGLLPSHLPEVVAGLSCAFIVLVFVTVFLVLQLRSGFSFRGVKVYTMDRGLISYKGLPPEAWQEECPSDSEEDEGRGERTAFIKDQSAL
ASSAY METHOD TEXT: furin cleavage Z-score vs untreated control; higher = more cleavage, active = 3.5 or more, inactive = 1 or less, 8 variable residues between constant flanks
COND: 30 min
This is one part of the list. The hit rate among all sequences tested is not known here.

{"ENTRY SEQUENCE": "CAVGRRYRRTAGNASASA [FS-387]", "furin cleavage Z-score": "8.06 (active)"}
{"ENTRY SEQUENCE": "CAARDQLEQAAGNASASA [HC1588]", "furin cleavage Z-score": "-0.23 (inactive)"}
{"ENTRY SEQUENCE": "CAVATDALMTAGNASASA [HC878]", "furin cleavage Z-score": "0.231 (inactive)"}
{"ENTRY SEQUENCE": "CAVPSTEDLVAGNASASA [HC1097]", "furin cleavage Z-score": "0.561 (inactive)"}

Reference source: the supplement of paper PMC3545927
